Target: HIS-TGFβR1 T204D (Homo sapiens (Human), UniProt P36897, T204D)
Sequence (P36897 34-503 T204D): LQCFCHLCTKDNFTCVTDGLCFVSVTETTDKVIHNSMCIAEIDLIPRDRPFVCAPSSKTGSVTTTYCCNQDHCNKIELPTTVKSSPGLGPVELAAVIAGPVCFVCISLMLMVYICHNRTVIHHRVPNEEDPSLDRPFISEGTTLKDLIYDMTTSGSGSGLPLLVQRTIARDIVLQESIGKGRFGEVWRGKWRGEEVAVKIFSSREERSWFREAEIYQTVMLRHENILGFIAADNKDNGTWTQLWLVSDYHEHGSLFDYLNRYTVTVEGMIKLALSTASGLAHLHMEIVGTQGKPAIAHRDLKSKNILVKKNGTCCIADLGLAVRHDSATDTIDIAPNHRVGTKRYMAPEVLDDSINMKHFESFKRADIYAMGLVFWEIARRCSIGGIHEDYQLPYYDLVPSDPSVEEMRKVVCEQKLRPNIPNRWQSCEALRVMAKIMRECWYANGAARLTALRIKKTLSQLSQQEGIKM
Experiment: HTRF probe-displacement assay, HIS-TGFβR1 T204D
Conditions: 1 hour at room temperature
measurement_kind: IC50 (nM)

I. COc1cccc(-c2nc(Nc3ccncc3F)c3c(OCCN4CCCC4)ccn3n2)n1
II. COc1cccc(-c2nc(Nc3ccnc(NCCN4CCOCC4)c3)c3cccn3n2)n1
Which record would sort first by descending IC50, I or II ? State the label of the item chosen.
I

P. CC(=O)Nc1cc(Nc2nc(-c3ccccn3)nn3ccc(CN4CCOCC4)c23)ccn1
Q. N#CCCC(=O)Nc1cc(Nc2nc(-c3cccc(C(F)(F)F)n3)nn3cccc23)ccn1
Smaller IC50 value? Options are P and Q State the label of the item chosen.
P
(P: 0.25 nM, Q: 0.79 nM)

1. O[C@H]1CCN(Cc2ccn3nc(-c4ccccn4)nc(Nc4ccncc4F)c23)C1
2. Cc1nc(-c2nc(Nc3ccncc3C(=O)NCCN3CCS(=O)(=O)CC3)c3cccn3n2)ccc1F
Which record would sort first by descending IC50, 1 or 2 ? State the label of the item chosen.
2
(2: 22 nM, 1: 0.93 nM)

----------
Target: HIS-TGFβR1 T204D (Homo sapiens (Human), UniProt P36897, T204D)
Test: HTRF probe-displacement assay, HIS-TGFβR1 T204D
Conditions: 1 hour at room temperature
pIC50: −log10 of the molar value.
measurement_kind: pIC50

Lab note: need pIC50 for `CC(=O)Nc1cc(Nc2nc(-c3cccc(C(F)F)n3)nn3cccc23)c(F)cn1` on HIS-TGFβR1 T204D (Homo sapiens (Human), UniProt P36897, T204D), anyone have it?
8.29

Lab note: need pIC50 for `O=c1[nH]c2ccccc2n1C1CCN(Cc2ccn3nc(-c4ccccn4)nc(Nc4ccncc4F)c23)CC1` on HIS-TGFβR1 T204D (Homo sapiens (Human), UniProt P36897, T204D), anyone have it?
8.74

Lab note: need pIC50 for `CC(C)CC(=O)Nc1cc(Nc2nc(-c3cccc(C(F)(F)F)n3)nn3cccc23)ccn1` on HIS-TGFβR1 T204D (Homo sapiens (Human), UniProt P36897, T204D), anyone have it?
8.25

----------
Biological target: HIS-TGFβR1 T204D (Homo sapiens (Human), UniProt P36897, T204D)
Experiment: HTRF probe-displacement assay, HIS-TGFβR1 T204D
Settings: 1 hour at room temperature
measurement_kind: IC50 (µM)

I would be grateful if you could share the reported IC50 for `COc1cccc(-c2nc(Nc3ccnc(NCCN4CCC(F)(F)CC4)c3)c3cccn3n2)n1` .
0.48

I would be grateful if you could share the reported IC50 for COc1cccc(-c2nc(Nc3ccncc3F)c3c(C(O)CO)ccn3n2)n1 (centres unmarked) .
0.016

I would be grateful if you could share the reported IC50 for `COc1cccc(-c2nc(Nc3ccnc(Cl)c3)c3cccn3n2)n1` .
6.6

I would be grateful if you could share the reported IC50 for `C=Cc1cc2c(Nc3ccncc3F)nc(-c3cccc(OC)n3)nn2c1` .
0.03

I would be grateful if you could share the reported IC50 for `O=C(NCc1cocn1)c1cnccc1Nc1nc(-c2cccc(C(F)F)n2)nn2cccc12` .
0.026

1. COc1cccc(-c2nc(Nc3ccncc3F)c3c(C(O)CNCCN4CCS(=O)(=O)CC4)ccn3n2)n1 (centres unmarked)
2. OC12C[C@H]3C[C@@H](C1)CC(NCc1ccn4nc(-c5ccccn5)nc(Nc5ccncc5F)c14)(C3)C2
3. Cc1nc(-c2nc(Nc3ccncc3)c3cccn3n2)ccc1F
4. Cc1cccc(-c2nc(Nc3ccncc3C(=O)NC3CCOC3)c3cccn3n2)n1 (centres unmarked)
5. COc1cccc(-c2nc(Nc3ccnc(F)c3)c3cccn3n2)n1
Arrange the 5 entries by IC50 so the values rise. # the answer lists labels in the order requested
2, 3, 4, 1, 5
